Exercise: for every item that follows, state its recorded PXR % induction (relative to 10 uM rifampin).
target: human PXR (Homo sapiens); construct: expressed in transfected cells; host or cells: DPX2 tumor cell line; assay: PXR nuclear receptor activation reporter gene assay in human DPX2 cells; assay type: cell-based; conditions: 24 hr treatment
Sequence (O75469 whole entry): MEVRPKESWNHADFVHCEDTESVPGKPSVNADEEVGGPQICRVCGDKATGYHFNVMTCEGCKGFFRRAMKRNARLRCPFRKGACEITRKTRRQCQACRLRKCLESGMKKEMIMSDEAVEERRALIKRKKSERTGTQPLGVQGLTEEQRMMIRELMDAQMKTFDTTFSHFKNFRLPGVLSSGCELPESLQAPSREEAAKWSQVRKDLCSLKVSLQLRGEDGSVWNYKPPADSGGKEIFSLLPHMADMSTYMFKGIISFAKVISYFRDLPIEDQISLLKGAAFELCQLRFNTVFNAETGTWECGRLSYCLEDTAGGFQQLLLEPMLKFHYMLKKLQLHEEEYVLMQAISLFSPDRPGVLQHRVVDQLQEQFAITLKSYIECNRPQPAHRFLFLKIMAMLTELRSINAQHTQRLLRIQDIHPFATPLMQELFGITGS
Give the quantity in %, number only.

// query For the compound shown here, CNC(=O)[C@H]1CCN(c2ncnc(N)c2F)C[C@@H]1N1CCC[C@@H](Nc2cc(Cl)cc(C(F)(F)F)c2)C1=O , give the reported PXR % induction (relative to 10 uM rifampin).
// result 67

// query Entry CN(C)C(=O)[C@H]1CCN(c2ncnc(N)c2F)C[C@@H]1N1CCC[C@@H](Nc2cc(Cl)cc(C(F)(F)F)c2)C1=O please
// result 47

// query Entry NC(=O)[C@H]1CCN(c2ncnc(N)c2F)C[C@@H]1N1CCC[C@@H](Nc2cc(Cl)cc(C(F)(F)F)c2)C1=O please
// result 62

// query Entry Nc1ncnc(N2CCC[C@@H](N3CCC[C@@H](Nc4cc(Cl)cc(C(F)(F)F)c4)C3=O)C2)c1F [I^C, reference compound] please
// result 95

// query Entry NC(=O)[C@H]1CCN(c2ncnc(N)c2F)C[C@@H]1N1CCC[C@@H](Nc2cc(F)cc(Cl)c2)C1=O please
// result 42

// query Entry NC(=O)[C@H]1CCN(c2ncnc(N)c2F)C[C@@H]1N1CCC[C@@H](Nc2cc(F)cc(C(F)(F)F)c2)C1=O please
// result 90
